Record form. Attribute: activation at 1 µM. Fill in for each entry.
Target: AMPK beta 1 (Homo sapiens, UniProt Q13131+Q9Y478)
Construct: in-cell-ELISA for phospho-ACC (Acetyl-CoA carboxylase 1) in HepG2 cells (liver); endogenous in cells; host or cells: HepG2
Sequence (Q9Y478 whole entry): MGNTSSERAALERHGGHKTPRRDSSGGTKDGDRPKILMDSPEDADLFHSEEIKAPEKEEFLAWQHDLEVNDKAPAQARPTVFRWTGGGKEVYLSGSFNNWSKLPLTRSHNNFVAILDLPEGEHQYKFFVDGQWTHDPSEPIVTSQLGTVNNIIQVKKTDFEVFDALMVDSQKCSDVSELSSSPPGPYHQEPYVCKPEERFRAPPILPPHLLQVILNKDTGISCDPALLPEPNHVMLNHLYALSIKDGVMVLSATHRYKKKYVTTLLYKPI
Sequence (Q13131 whole entry): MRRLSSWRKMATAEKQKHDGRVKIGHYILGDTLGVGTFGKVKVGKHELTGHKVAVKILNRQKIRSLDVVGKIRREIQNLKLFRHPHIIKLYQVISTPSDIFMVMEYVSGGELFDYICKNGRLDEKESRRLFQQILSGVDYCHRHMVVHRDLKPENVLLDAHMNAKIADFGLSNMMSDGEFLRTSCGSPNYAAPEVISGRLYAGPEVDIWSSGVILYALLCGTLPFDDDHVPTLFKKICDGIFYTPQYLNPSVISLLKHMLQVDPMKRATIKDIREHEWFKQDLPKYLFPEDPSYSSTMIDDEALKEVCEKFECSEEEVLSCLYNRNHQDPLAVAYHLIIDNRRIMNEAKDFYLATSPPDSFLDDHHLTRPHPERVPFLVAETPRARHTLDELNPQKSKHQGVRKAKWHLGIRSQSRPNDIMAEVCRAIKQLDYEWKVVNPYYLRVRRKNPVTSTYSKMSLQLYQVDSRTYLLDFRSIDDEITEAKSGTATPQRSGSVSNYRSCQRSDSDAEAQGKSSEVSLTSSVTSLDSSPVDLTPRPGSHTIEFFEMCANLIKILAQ
Sequence (P54619 whole entry partner): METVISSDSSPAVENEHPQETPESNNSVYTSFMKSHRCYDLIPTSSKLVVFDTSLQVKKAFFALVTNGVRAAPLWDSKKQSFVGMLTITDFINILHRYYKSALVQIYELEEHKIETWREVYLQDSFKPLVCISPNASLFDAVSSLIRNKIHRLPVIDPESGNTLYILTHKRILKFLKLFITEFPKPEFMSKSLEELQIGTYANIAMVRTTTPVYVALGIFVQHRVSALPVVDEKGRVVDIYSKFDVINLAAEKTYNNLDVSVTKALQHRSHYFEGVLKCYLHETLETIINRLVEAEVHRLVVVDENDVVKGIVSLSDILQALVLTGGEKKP
Experiment: in-cell-ELISA for phospho-ACC, Activity beta 1
Format: cell-based
Details: 2 h, serum free DMEM, percentage activation over vehicle control, cell line not given (HepG2 or C2C12 myotubes)

Suppose we examine the compound Cc1ccc(C=C2C(=O)Nc3cc(Cl)c(-c4ccc(-c5ccccc5O)cn4)cc32)cc1C(=O)O ; what activation at 1 µM value has been reported? < 20%

Suppose we examine the compound Cc1ccc(C=C2C(=O)Nc3cc(F)c(-c4ccc(-c5ccncc5)cc4)cc32)cc1CC(=O)O ; what activation at 1 µM value has been reported? < 20%

Suppose we examine the compound Cc1ccc(C=C2C(=O)Nc3cc(Cl)c(-c4ccc(-c5ccccc5O)nc4)cc32)cc1CC(=O)O ; what activation at 1 µM value has been reported? < 20%

Suppose we examine the compound O=C(O)Cc1ccc(/C=C2\C(=O)Nc3cc(Cl)c(-c4ccc(-c5ccc(-n6cncn6)cc5)cc4)cc32)cc1 ; what activation at 1 µM value has been reported? > 40%

Suppose we examine the compound COc1ccc(C=C2C(=O)Nc3cc(Cl)c(-c4ccc(-c5ccccc5O)cn4)cc32)cc1CC(=O)O ; what activation at 1 µM value has been reported? < 20%

Suppose we examine the compound Cc1ccc(C=C2C(=O)Nc3cc(F)c(-c4ccc(-c5ccc(-n6cncn6)cc5)cc4)cc32)cc1C(=O)O ; what activation at 1 µM value has been reported? > 40%

Suppose we examine the compound Cc1ccc(C=C2C(=O)Nc3cc(Cl)c(-c4ccc(-c5ccccc5O)cc4)nc32)cc1CC(=O)O ; what activation at 1 µM value has been reported? 20 to 40%

Suppose we examine the compound Cn1cc(C=C2C(=O)Nc3cc(Cl)c(-c4ccc(-c5ccc(-n6cncn6)cc5)cc4)cc32)cc1C(=O)O ; what activation at 1 µM value has been reported? > 40%

Suppose we examine the compound O=C(O)Cc1ccc(C=C2C(=O)Nc3cc(F)c(-c4ccc(-c5ccccc5O)cc4)cc32)cc1 ; what activation at 1 µM value has been reported? < 20%

Suppose we examine the compound Cn1ccc(C=C2C(=O)Nc3cc(Cl)c(-c4ccc(-c5ccccc5O)cc4)cc32)c1 ; what activation at 1 µM value has been reported? > 40%

Suppose we examine the compound Cc1ccc(C=C2C(=O)Nc3cc(Cl)c(-c4ccc(-c5ccccc5O)cc4)cc32)cc1 ; what activation at 1 µM value has been reported? < 20%

Suppose we examine the compound Cc1ccc(C=C2C(=O)Nc3cc(F)c(-c4ccc(-c5ccccc5O)cc4)cc32)cc1C(=O)O ; what activation at 1 µM value has been reported? 20 to 40%

Suppose we examine the compound COc1ccc(C=C2C(=O)Nc3cc(Cl)c(-c4ccc(-c5ccccc5O)cc4)nc32)cc1CC(=O)O ; what activation at 1 µM value has been reported? > 40%

Suppose we examine the compound CN1C(=O)C(=Cc2cc(C(=O)O)n(C)c2)c2cc(-c3ccc(-c4ccccc4O)cc3)c(Cl)cc21 ; what activation at 1 µM value has been reported? < 20%

Suppose we examine the compound O=C(O)Cc1cc(C=C2C(=O)Nc3cc(Cl)c(-c4ccc(-c5ccccc5O)cc4)cc32)ccc1O (racemic) ; what activation at 1 µM value has been reported? < 20%

Suppose we examine the compound COc1ccc(C=C2C(=O)Nc3cc(Cl)c(-c4ccc(-c5ccc(-n6ccnc6C)cc5)cc4)cc32)cc1CC(=O)O ; what activation at 1 µM value has been reported? < 20%

Suppose we examine the compound COc1ccc(C=C2C(=O)Nc3cc(Cl)c(-c4ccc(-c5ccc(-n6cncn6)cc5)cc4)cc32)cc1CC(=O)O ; what activation at 1 µM value has been reported? > 40%

Suppose we examine the compound O=C1Nc2cc(Cl)c(-c3ccc(-c4ccccc4O)cc3)cc2C1=Cc1c[nH]c(C(=O)O)c1 ; what activation at 1 µM value has been reported? < 20%

Cited source: patent US20160368870A1
